- assayMethodText: Selectivity index, ratio of CC50 for HEL cells to EC50 for Human cytomegalovirus AD169 infected in HEL cells
- Format: toxicity, cell-based
- settings: read-out: Ratio CC50/EC50
parameterMeasured: selectivity ratio
Please respond with just the number, no unit label.

Return selectivity ratio (reported value) for this compound: CCCCCOC(=O)[C@@H](NP1(=O)CO[C@@H](Cn2cnc3c(N)ncnc32)CO1)[C@@H](C)CC (stereo partly specified)
1800

----------
Entries and their half-life at 0.1 µM
- assayMethodText: Half life in human liver microsomes at 0.1 uM in presence of NADPH-generating system by HPLC-MS/MS analysis
- Format: ADME, microsome
Dear colleague, please return just the value in min, with no unit written.

Some compounds with known half-life at 0.1 µM results, for comparison:
Return half-life at 0.1 µM (reported value) for this compound: CCCCCOC(=O)[C@H](CC(C)C)NP1(=O)CO[C@@H](Cn2cnc3c(N)ncnc32)CO1 (stereo partly drawn)
16

Return half-life at 0.1 µM (reported value) for this compound: CCCCCOC(=O)[C@@H](NP(=O)(CO[C@H](CO)Cn1cnc2c(N)ncnc21)N[C@H](C(=O)OCCCCC)C(C)C)C(C)C
4

Now let's try a different one.
Return half-life at 0.1 µM (reported value) for this compound: CCCCCOC(=O)C[C@H](NP1(=O)CO[C@@H](Cn2cnc3c(N)ncnc32)CO1)C(=O)OCCCCC (stereo partly drawn)
4

----------
- Test system: Human alphaherpesvirus 1
- assayMethodText: Antiviral activity against Herpes simplex virus 1 KOS infected in HEL cells assessed as inhibition of virus-induced cytopathic effect measured after 2 to 3 days post-infection
- Type: functional, organism-based
- settings: Human alphaherpesvirus 1, KOS
parameterMeasured: EC50 (nM)
Dear colleague, please return just the value in nM, with no unit written.

Some molecules with known EC50 results, for comparison:
Enter EC50 (test system Human alphaherpesvirus 1) for Nc1nc2c(ncn2CCC(CO)CO)c(=O)[nH]1 [PENCICLOVIR]
480

Enter EC50 (test system Human alphaherpesvirus 1) for Nc1ccn(C[C@@H](CO)OCP(=O)(O)O)c(=O)n1 [CIDOFOVIR]
4180

Enter EC50 (test system Human alphaherpesvirus 1) for CCCCCOC(=O)C[C@H](NP1(=O)CO[C@@H](Cn2cnc3c(N)ncnc32)CO1)C(=O)OCCCCC (some centres undefined)
3.2

Now let's try a different one.
Enter EC50 (test system Human alphaherpesvirus 1) for CCCCCOC(=O)[C@@H](NP1(=O)CO[C@@H](Cn2cnc3c(N)ncnc32)CO1)C(C)C (some centres undefined)
3

----------
- Tested on: Human alphaherpesvirus 2
- assayMethodText: Antiviral activity against Herpes simplex virus 2 G infected in HEL cells assessed as inhibition of virus-induced cytopathic effect measured after 2 to 3 days post-infection
- Type: functional, organism-based
- settings: Human alphaherpesvirus 2, strain G
Entries and their EC50
Dear colleague, please return just the value in nM, with no unit written.

Some molecules with known EC50 results, for comparison:
Return EC50 (reported value) for this molecule: CCCCCOC(=O)CC(NP1(=O)COC(Cn2cnc3c(N)ncnc32)CO1)C(=O)OCCCCC (single isomer, unassigned)
110

Return EC50 (reported value) for this molecule: CCCCCOC(=O)[C@H](C)NP1(=O)CO[C@@H](Cn2cnc3c(N)ncnc32)CO1 (stereo partly specified)
17

Return EC50 (reported value) for this molecule: CCCCCOC(=O)[C@H](CCSC)NP1(=O)CO[C@@H](Cn2cnc3c(N)ncnc32)CO1 (stereo partly specified)
11

***
Return EC50 (reported value) for this molecule: Nc1nc2c(ncn2CCC(CO)CO)c(=O)[nH]1
840

Return EC50 (reported value) for this molecule: CCCCCOC(=O)[C@H](CC(C)C)NP1(=O)CO[C@@H](Cn2cnc3c(N)ncnc32)CO1 (stereo partly specified)
1.9

Return EC50 (reported value) for this molecule: Nc1ccn(C[C@@H](CO)OCP(=O)(O)O)c(=O)n1
2730

Measured values drawn from ChEMBL document CHEMBL4251741 for this set.
